MEASUREMENT_TARGET: recombinant human p38α MAP kinase (Homo sapiens)
Sequence (Q16539 whole entry): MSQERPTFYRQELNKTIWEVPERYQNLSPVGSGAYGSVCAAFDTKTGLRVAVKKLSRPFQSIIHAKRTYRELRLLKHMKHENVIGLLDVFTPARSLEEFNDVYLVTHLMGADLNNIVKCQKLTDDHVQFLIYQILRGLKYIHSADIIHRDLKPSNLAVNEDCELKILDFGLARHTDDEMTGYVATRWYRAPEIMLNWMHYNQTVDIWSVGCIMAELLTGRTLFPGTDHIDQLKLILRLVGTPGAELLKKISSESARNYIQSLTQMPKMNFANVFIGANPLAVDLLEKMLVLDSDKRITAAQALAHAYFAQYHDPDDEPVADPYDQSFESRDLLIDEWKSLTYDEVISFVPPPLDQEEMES
PROTOCOL_DESCRIPTION: Study on p38α MAP kinase inhibitory activity (ATF2 phosphorylation, Alpha Screen)
RUN_PARAMETERS: biotinylated ATF2 substrate, 30° C. for 30 minutes
# pIC50 listing for each entry below
In simple prose, pIC50 is minus the logarithm base ten of a concentration in moles per litre.

Example compounds with recorded pIC50:
>  <COMPOUND>
C[C@@](O)(CO)c1nc(-c2ccc(=O)n(-c3c(F)cccc3F)c2)c(-c2ccc(F)cc2F)o1 [Example 167 (1)]

>  <MEASUREMENT_TARGET>
recombinant human p38α MAP kinase (Homo sapiens)

>  <pIC50>
8.36

$$$$
>  <COMPOUND>
O=c1ccc(-c2nc(C(O)(CO)CO)oc2-c2ccc(F)cc2F)cn1-c1c(F)cccc1F [Example 7 (39)]

>  <MEASUREMENT_TARGET>
recombinant human p38α MAP kinase (Homo sapiens)

>  <pIC50>
8.55

$$$$

// query Consider the compound CC(C)(O)[C@@H](O)c1nc(-c2ccc(F)cc2F)c(-c2ccc(=O)n(-c3c(F)cccc3F)c2)o1 [Example 207] . State its measured pIC50.
// result 8.43

// query Specify reported pIC50 for the compound shown: C[C@@](O)(CO)c1nc(-c2ccc(F)cc2F)c(-c2ccc(=O)n(-c3c(F)cccc3F)c2)o1 [Example 211]
// result 8.25

----------
Here the recorded pIC50 is given for each entry.
MEASUREMENT_TARGET: recombinant human p38α MAP kinase (Homo sapiens)
PROTOCOL_DESCRIPTION: Study on p38α MAP kinase inhibitory activity (ATF2 phosphorylation, Alpha Screen)
RUN_PARAMETERS: biotinylated ATF2 substrate, 30° C. for 30 minutes
For clarity, pIC50 is expressed as the negative log10 of concentration in mol/L.

# annotated cases, reported pIC50 shown
>  <SMILES_STRING>
Cc1cc(Cl)cc(C)c1-n1cc(-c2nc(C(C)(CO)CO)oc2-c2ccc(F)cc2F)ccc1=O

>  <PARAMETER_MEASURED>
pIC50

>  <REPORTED_RESULT>
7.92

$$$$
>  <SMILES_STRING>
CC(C)(O)c1nc(-c2ccc(=O)n(-c3c(F)cccc3F)c2)c(-c2ccc(F)cc2F)o1

>  <PARAMETER_MEASURED>
pIC50

>  <REPORTED_RESULT>
8.46

$$$$
>  <SMILES_STRING>
CC(C)(O)[C@@H](O)c1nc(-c2ccc(=O)n(-c3c(F)cccc3F)c2)c(-c2ccc(F)cc2F)o1

>  <PARAMETER_MEASURED>
pIC50

>  <REPORTED_RESULT>
8.32

$$$$
>  <SMILES_STRING>
CC(C)(O)[C@H](O)c1nc(-c2ccc(=O)n(-c3c(F)cccc3F)c2)c(-c2ccc(F)cc2F)o1

>  <PARAMETER_MEASURED>
pIC50

>  <REPORTED_RESULT>
8.41

$$$$
>  <SMILES_STRING>
CC(C)(O)c1nc(-c2ccc(F)cc2F)c(-c2ccc(=O)n(-c3c(F)cccc3F)c2)o1

>  <PARAMETER_MEASURED>
pIC50

>  <REPORTED_RESULT>
8.77

$$$$
>  <SMILES_STRING>
C[C@](O)(CO)c1nc(-c2ccc(=O)n(-c3c(F)cccc3F)c2)c(-c2ccc(F)cc2F)o1

>  <PARAMETER_MEASURED>
pIC50

>  <REPORTED_RESULT>
8.42

$$$$
>  <SMILES_STRING>
CC(C)(O)[C@H](O)c1nc(-c2ccc(F)cc2F)c(-c2ccc(=O)n(-c3c(F)cccc3F)c2)o1

>  <PARAMETER_MEASURED>
pIC50

>  <REPORTED_RESULT>
8.48

$$$$
>  <SMILES_STRING>
O=c1ccc(-c2oc(C(O)(CO)CO)nc2-c2ccc(F)cc2F)cn1-c1c(F)cccc1F

>  <PARAMETER_MEASURED>
pIC50

>  <REPORTED_RESULT>
8.48

$$$$

// query Provide one value: measured pIC50 of C[C@](O)(CO)c1nc(-c2ccc(F)cc2F)c(-c2ccc(=O)n(-c3c(F)cccc3F)c2)o1
// result 8.24

// query Answer with the recorded pIC50 for the compound listed here: CC(C)(O)Cc1nc(-c2ccc(F)cc2F)c(-c2ccc(=O)n(-c3c(F)cccc3F)c2)o1
// result 8.10
